Attribution: ChEMBL document CHEMBL6134923

molecular target: Glycogen synthase kinase-3 beta (Homo sapiens, UniProt P49841); experiment: Inhibition of N-terminal GST-tagged full-length recombinant human GSK-3beta extracted from baculovirus infected Sf9 cells using biotinylated-phosphorylated glycogen synthase incubated for 100 mins in presence of ATP by TR-FRET assay
Sequence (P49841 whole entry): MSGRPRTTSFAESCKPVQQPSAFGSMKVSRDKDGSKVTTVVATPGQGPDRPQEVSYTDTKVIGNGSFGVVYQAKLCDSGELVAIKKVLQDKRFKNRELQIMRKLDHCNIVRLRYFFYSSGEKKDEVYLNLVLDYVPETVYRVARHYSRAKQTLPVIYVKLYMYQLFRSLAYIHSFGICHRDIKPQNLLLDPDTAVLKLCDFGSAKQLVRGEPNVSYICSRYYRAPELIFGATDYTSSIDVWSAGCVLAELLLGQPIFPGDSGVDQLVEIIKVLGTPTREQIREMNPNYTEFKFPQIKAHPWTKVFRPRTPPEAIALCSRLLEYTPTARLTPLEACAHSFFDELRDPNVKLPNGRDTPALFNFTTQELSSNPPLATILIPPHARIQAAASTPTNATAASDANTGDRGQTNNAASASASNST
Assay metric: IC50

Use these answered entries as a reference point.
Compound: CCC1(c2cccc(N3CC4CCC(C4)C3)c2)C2=C(CC(C)(C)CC2=O)Nc2n[nH]cc21 (stereo unspecified)
Experimental value: > 1000 nM

Compound: CC[C@@]1(c2cccc(-c3cncn3C)c2)C2=C(CC(C)(C)NC2=O)Nc2n[nH]c(C(F)(F)F)c21
Experimental value: ≤ 100 nM

Compound: CC[C@@]1(c2cccc(C(F)(F)F)c2)C2=C(Nc3n[nH]cc31)[C@H](F)C(C)(C)CC2=O
Experimental value: ≤ 100 nM

IC50 lookup needed for "CC[C@@]1(c2cccc(-c3cc(C)ncc3C)c2)C2=C(CC(C)(C)CC2=O)Nc2n[nH]c(C(F)(F)F)c21" , thanks.
> 100 nM

IC50 lookup needed for "CC[C@]1(c2cccc(OC(C)C)c2)C2=C(CC(C)(C)CC2=O)Nc2n[nH]c(C(F)(F)F)c21" , thanks.
≤ 100 nM

IC50 lookup needed for "CC[C@@]1(c2cccc(S(=O)(=O)C3CC3)c2)C2=C(CC(C)(C)CC2=O)Nc2n[nH]c(C(F)(F)F)c21" , thanks.
≤ 100 nM

* * *

Below: a set of entries, each annotated with reported IC50.
target: Glycogen synthase kinase-3 alpha (Homo sapiens, UniProt P49840); test: Inhibition of N-terminal GST-tagged full-length recombinant human GSK-3alpha extracted from baculovirus infected Sf9 cells using biotinylated-phosphorylated glycogen synthase incubated for 100 mins in presence of ATP by TR-FRET assay
Sequence (P49840 whole entry): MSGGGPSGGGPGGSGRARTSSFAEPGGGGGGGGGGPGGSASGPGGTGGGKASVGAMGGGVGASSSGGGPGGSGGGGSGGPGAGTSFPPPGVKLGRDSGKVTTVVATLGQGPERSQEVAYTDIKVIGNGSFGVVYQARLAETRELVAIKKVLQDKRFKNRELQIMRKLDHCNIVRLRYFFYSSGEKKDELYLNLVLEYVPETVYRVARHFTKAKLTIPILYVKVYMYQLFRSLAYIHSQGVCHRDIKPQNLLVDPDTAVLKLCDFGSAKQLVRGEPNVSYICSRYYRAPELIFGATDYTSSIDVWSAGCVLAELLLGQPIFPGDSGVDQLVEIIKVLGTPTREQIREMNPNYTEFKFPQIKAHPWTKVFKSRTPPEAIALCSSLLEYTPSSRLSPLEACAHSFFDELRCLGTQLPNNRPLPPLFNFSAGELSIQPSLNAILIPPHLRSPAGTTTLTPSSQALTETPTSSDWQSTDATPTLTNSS

Compound: CC[C@]1(c2cccc(OC(C)C)c2)C2=C(CC(C)(C)CC2=O)Nc2n[nH]c(C(F)(F)F)c21
Target or test system: Glycogen synthase kinase-3 alpha (Homo sapiens, UniProt P49840)
IC50: ≤ 0.1 µM

Compound: CC[C@@]1(c2cccc(C(F)(F)F)c2)C2=C(Nc3n[nH]cc31)[C@H](F)C(C)(C)CC2=O
Target or test system: Glycogen synthase kinase-3 alpha (Homo sapiens, UniProt P49840)
IC50: ≤ 0.1 µM

Compound: CC[C@@]1(c2cccc(-c3cncn3C)c2)C2=C(CC(C)(C)NC2=O)Nc2n[nH]c(C(F)(F)F)c21
Target or test system: Glycogen synthase kinase-3 alpha (Homo sapiens, UniProt P49840)
IC50: ≤ 0.1 µM

IC50 lookup needed for "CC[C@@]1(c2cccc(-c3cc(C)ncc3C)c2)C2=C(CC(C)(C)CC2=O)Nc2n[nH]c(C(F)(F)F)c21" , thanks.
> 0.1 µM

IC50 lookup needed for "CC[C@@]1(c2cccc(S(=O)(=O)C3CC3)c2)C2=C(CC(C)(C)CC2=O)Nc2n[nH]c(C(F)(F)F)c21" , thanks.
≤ 0.1 µM

IC50 lookup needed for CCC1(c2cccc(N3CC4CCC(C4)C3)c2)C2=C(CC(C)(C)CC2=O)Nc2n[nH]cc21 (stereo unspecified) , thanks.
> 0.1 µM
